Value source: patent US20170137511A1

TARGET_OR_SYSTEM: recombinant human IL-15 (Prospec cat no. CYT230) (human, UniProt P40933 49-162)
Sequence (P40933 other isoform, or with tags, fused parts or gaps): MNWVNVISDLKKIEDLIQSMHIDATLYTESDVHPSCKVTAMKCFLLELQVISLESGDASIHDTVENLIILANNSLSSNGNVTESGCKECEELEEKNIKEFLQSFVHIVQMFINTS
ASSAY_TEXT: ELISA, plate-bound human IL-15; printed as BC50 (half-maximal binding concentration)
The entries below are paired with their reported EC50.

# BINDER, UNIT_OF_MEASURE, EC50
records = [
    ("huB-E29-9 (antibody, human IgG1, kappa, V domains shown, Humanized B-E29 variant; human IgG1 (G1m3) / kappa (Km3), produced in CHO cells; also called huVH7/huVL1) VH: EVRLMASGGGLVQPGGSLRLSCAASEFTFSNYAMSWVRQAPGKGLEWVATISRGGDYTYYPDTVKGRFTISRDNSKNTLYLQMNSLRAEDTAVYYCARRVSAITGGWAMDYWGQGTLVTVSS VL: DVVMTQSPLSLPVTLGQPASISCRSSQSIVDITGNTYLEWYQQRPGQSPRLLIYKVFNRFSGVPDRFSGSGSGTDFTLKISRVEAEDVGVYYCFQDSFVPYTFGQGTKLEIKR", "nM", 1.99),
    ("huB-E29-6 (antibody, human IgG1, kappa, V domains shown, Humanized B-E29 variant; human IgG1 (G1m3) / kappa (Km3), produced in CHO cells; also called huVH4/huVL1) VH: EVRLMASGGGLVQPGGSLRLSCAASEFTFSNYAMSWVRQAPGKGLEWVATISRGGDYTYYPDSVKGRFTISRDNSKNTLYLQMNSLRAEDTAVYYCARRVSLITGGWAMDYWGQGTLVTVSS VL: DVVMTQSPLSLPVTLGQPASISCRSSQSIVDITGNTYLEWYQQRPGQSPRLLIYKVFNRFSGVPDRFSGSGSGTDFTLKISRVEAEDVGVYYCFQDSFVPYTFGQGTKLEIKR", "nM", 1.84),
    ("huB-E29-16 (antibody, human IgG1, kappa, V domains shown, Humanized B-E29 variant; human IgG1 (G1m3) / kappa (Km3), produced in CHO cells; also called huVH14/huVL1) VH: EVRLMASGGGLVQPGGSLRLSCAASEFTFSNYAMSWVRQAPGKGLEWVATISRGGDYTYYPESVKGRFTISRDNSKNTLYLQMNSLRAEDTAVYYCARRVSMITGGWAMDYWGQGTLVTVSS VL: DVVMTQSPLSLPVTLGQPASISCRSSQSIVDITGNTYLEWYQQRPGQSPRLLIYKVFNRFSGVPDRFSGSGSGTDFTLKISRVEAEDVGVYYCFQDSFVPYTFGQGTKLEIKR", "nM", 2.01),
    ("huB-E29-8 (antibody, human IgG1, kappa, V domains shown, Humanized B-E29 variant; human IgG1 (G1m3) / kappa (Km3), produced in CHO cells; also called huVH6/huVL1) VH: EVRLMASGGGLVQPGGSLRLSCAASEFTFSNYAMSWVRQAPGKGLEWVATISRGGDYTYYPDTVKGRFTISRDNSKNTLYLQMNSLRAEDTAVYYCARRVSIITGGWAMDYWGQGTLVTVSS VL: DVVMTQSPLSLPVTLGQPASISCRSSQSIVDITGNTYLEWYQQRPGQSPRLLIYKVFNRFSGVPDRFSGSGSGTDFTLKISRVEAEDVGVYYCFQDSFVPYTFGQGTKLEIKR", "nM", 1.79),
    ("huB-E29-4 (antibody, human IgG1, kappa, V domains shown, Humanized B-E29 variant; human IgG1 (G1m3) / kappa (Km3), produced in CHO cells; also called huVH1/huVL2) VH: EVRLMASGGGLVQPGGSLRLSCAASEFTFSNYAMSWVRQAPGKGLEWVATISRGGDYTYYPDSVKGRFTISRDNSKNTLYLQMNSLRAEDTAVYYCARRVSMITGGWAMDYWGQGTLVTVSS VL: DVVMTQSPLSLPVTLGQPASISCRSSQSIVDITGNTYLEWFQQRPGQSPRLLIYKVFNRFSGVPDRFSGSGSGTDFTLKISRVEAEDVGVYYCFQDSFVPYTFGQGTKLEIKR", "nM", 1.01),
]
